Origin of measurements: patent US4432984A

- assay_protocol: Acute toxicity in mice by the oral route
- measurement_setup: mouse, in vivo, per os, read-out: Approximate lethal dose 50 (LD50)
Where a name gives a salt, the structure may show the parent alone.
Give LD50 for every item shown.

# compound, assay_result
rows = [
    ("O=C(Oc1ccc(C(=O)C2CCN(CC3COc4ccccc4O3)CC2)cc1)c1cccnc1 (centres unmarked)", "> 3200 mg/kg"),
]

Please find the next compound below.
Incoming: If you can, please state the reported LD50 value of O=C(c1ccc(F)cc1)C1CCN(CC2COc3ccccc3O2)CC1 (centres unmarked) [Example 2, hydrochloride] .
Outgoing: 495 to 655 mg/kg
